molecular target: Pro-neuregulin-1, membrane-bound isoform (Homo sapiens) (UniProt Q02297); experiment: NRG1 binders on small-molecule microarrays, primary screen, psychiatric disease protein project, biochemical, small-molecule microarray, fluorescence 635/667 (AID 1075); settings: NRG1 binding, 635 nm fluorescence, higher = more signal;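 further: score combines 667 nm spot fluorescence with signal to noise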
Sequence (Q02297 whole entry, looked up, canonical isoform): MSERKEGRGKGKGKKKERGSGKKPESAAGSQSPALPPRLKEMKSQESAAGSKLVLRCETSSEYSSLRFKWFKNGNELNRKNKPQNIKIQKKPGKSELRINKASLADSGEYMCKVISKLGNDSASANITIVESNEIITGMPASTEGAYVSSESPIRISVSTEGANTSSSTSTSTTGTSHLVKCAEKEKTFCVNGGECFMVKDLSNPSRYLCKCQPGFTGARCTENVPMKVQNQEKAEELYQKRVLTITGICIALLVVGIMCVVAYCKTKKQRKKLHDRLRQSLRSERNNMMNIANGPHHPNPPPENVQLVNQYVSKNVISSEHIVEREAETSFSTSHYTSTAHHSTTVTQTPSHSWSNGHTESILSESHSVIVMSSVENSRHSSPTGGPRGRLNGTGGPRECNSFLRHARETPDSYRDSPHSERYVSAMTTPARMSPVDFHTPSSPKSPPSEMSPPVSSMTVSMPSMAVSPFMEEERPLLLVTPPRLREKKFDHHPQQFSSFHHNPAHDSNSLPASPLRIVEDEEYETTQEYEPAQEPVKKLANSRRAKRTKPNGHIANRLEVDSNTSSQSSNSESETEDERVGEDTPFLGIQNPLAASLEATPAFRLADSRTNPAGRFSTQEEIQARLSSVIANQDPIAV
observedProperty: composite z-score
// keep it numeric: no unit symbol after the value

For O=C1C=C[C@@H](O)[C@@H]2[C@@H]3C(=O)N(C[C@@H]4CCCO4)C(=O)[C@@H]3CC[C@@H]12 the molecule record lists composite z-score as -0.0326

For CCCNC(=O)OC[C@H]1O[C@H](CCON=Cc2ccc(C(=O)N3[C@H](c4ccc(C)cc4)[C@@H](C)CC[C@H]3C(=O)OC)cc2)C=C[C@@H]1Oc1ccc(OC)cc1 the molecule record lists composite z-score as 0.448

For CO[C@@H]1COC(=O)[C@@H]2CCCN2C(=O)[C@@H](C)COC(=O)CC=C[C@H]1C the molecule record lists composite z-score as 0.0187

For CC(CCN1CCCCc2nc(C)c(C)cc21)=NOC[C@@H](O)COCc1ccco1 the molecule record lists composite z-score as -1.03
